# Read-out: Tumor necrosis factor receptor 1 (TNFRSF1A), TNFRSF1A (gene 7132)
# measurement-protocol: LTEA_HepaRG_TNFRSF1A: Life Technologies and Expression Analysis (LTEA) Assay for Tumor necrosis factor receptor 1 (TNFRSF1A) using HepaRG (AID 2283535)
# assay-context: mRNA level, 48 h; actives raise or lower the signal
Active and inactive are the calls of the source. Rule for the calls: active = hit-call score of the fitted dose curve at least 0.9, where 1 is the maximum; inactive = score below 0.9.
Labels: active, inactive

# molecule, qualitative-label
measured = [
    ("COP(=O)(OC)OC(Br)C(Cl)(Cl)Br (stereo unspecified)", "inactive"),
    ("CC(COc1ccc(Oc2ccccc2)cc1)Oc1ccccn1 (stereo unspecified)", "inactive"),
    ("C#CCC1=C(C)C(OC(=O)C2C(C=C(C)C)C2(C)C)CC1=O (stereo unspecified)", "inactive"),
    ("Cc1ccn2nc(S(=O)(=O)Nc3c(F)cccc3F)nc2n1", "inactive"),
    ("C[Si](Cn1cncn1)(c1ccc(F)cc1)c1ccc(F)cc1", "active"),
    ("CSC1=N[C@@](C)(c2ccccc2)C(=O)N1Nc1ccccc1", "inactive"),
]

====

# Read-out: UDP glucuronosyltransferase (UGT1A1), UGT1A1 (gene 54658)
# measurement-protocol: LTEA_HepaRG_UGT1A1: Life Technologies and Expression Analysis (LTEA) Assay for UDP glucuronosyltransferase (UGT1A1) using HepaRG (AID 2283538)
# assay-context: mRNA level, 48 h; actives raise or lower the signal
Activity calls are given as the source filed them. Rule for the calls: active = hit-call score of the fitted dose curve at least 0.9, where 1 is the maximum; inactive = score below 0.9.
Labels: class 1 for active, class 0 for inactive

# molecule, qualitative-label
rows = [
    ("COc1ccc(C(=CC(=O)N2CCOCC2)c2ccc(Cl)cc2)cc1OC", "class 1"),
    ("CCCCOC(=O)c1ccccc1C(=O)O", "class 1"),
    ("CC(C)=CC1C(C(=O)OCN2C(=O)C3=C(CCCC3)C2=O)C1(C)C (centres undefined)", "class 0"),
    ("COP(=O)(OC)SCn1c(=O)oc2cc(Cl)cnc21", "class 1"),
    ("CCc1cnc(C2=NC(C)(C(C)C)C(=O)N2)c(C(=O)O)c1 (centres undefined)", "class 0"),
    ("CC(=NC#N)N(C)Cc1ccc(Cl)nc1", "class 1"),
    ("Nc1c(Cl)cc([N+](=O)[O-])cc1Cl", "class 1"),
    ("CC(C1CC1)C(O)(Cn1cncn1)c1ccc(Cl)cc1 (centres undefined)", "class 0"),
    ("COc1cccc(C(=O)NN(C(=O)c2cc(C)cc(C)c2)C(C)(C)C)c1C", "class 1"),
    ("CCOP(=S)(OCC)Oc1cc(C)nc(C(C)C)n1", "class 1"),
    ("Nc1nc(N)nc(NC2CC2)n1", "class 0"),
    ("CCc1cccc(C)c1N(C(=O)CCl)C(C)COC (centres undefined)", "class 1"),
    ("CCOC(=O)COc1cc(-c2nn(C)c(OC(F)F)c2Cl)c(F)cc1Cl", "class 1"),
    ("CCCOc1nn(C(=O)NS(=O)(=O)c2ccccc2C(=O)OC)c(=O)n1C", "class 0"),
    ("CCOC(=O)CC(SP(=O)(OC)OC)C(=O)OCC (centres undefined)", "class 0"),
    ("CNc1cnn(-c2cccc(C(F)(F)F)c2)c(=O)c1Cl", "class 1"),
    ("CNC(=O)Oc1cccc2c1OC(C)(C)O2", "class 0"),
    ("COP(=O)(OC)OC(Br)C(Cl)(Cl)Br (centres undefined)", "class 0"),
    ("CC1=NNC(=O)N(/N=C/c2cccnc2)C1", "class 0"),
    ("COc1cc(OC)nc(Sc2cccc(Cl)c2C(=O)O)n1", "class 0"),
    ("Cc1ccn2nc(S(=O)(=O)Nc3c(F)cccc3F)nc2n1", "class 0"),
    ("Cc1nn(-c2cc(NS(C)(=O)=O)c(Cl)cc2Cl)c(=O)n1C(F)F", "class 1"),
    ("C[Si](Cn1cncn1)(c1ccc(F)cc1)c1ccc(F)cc1", "class 1"),
    ("CCOP(=O)(NC(C)C)Oc1ccc(SC)c(C)c1 (centres undefined)", "class 1"),
]

====

# target-system: Glucocorticoid receptor (Homo sapiens) (UniProt P04150)
# Sequence (P04150 whole entry, looked up): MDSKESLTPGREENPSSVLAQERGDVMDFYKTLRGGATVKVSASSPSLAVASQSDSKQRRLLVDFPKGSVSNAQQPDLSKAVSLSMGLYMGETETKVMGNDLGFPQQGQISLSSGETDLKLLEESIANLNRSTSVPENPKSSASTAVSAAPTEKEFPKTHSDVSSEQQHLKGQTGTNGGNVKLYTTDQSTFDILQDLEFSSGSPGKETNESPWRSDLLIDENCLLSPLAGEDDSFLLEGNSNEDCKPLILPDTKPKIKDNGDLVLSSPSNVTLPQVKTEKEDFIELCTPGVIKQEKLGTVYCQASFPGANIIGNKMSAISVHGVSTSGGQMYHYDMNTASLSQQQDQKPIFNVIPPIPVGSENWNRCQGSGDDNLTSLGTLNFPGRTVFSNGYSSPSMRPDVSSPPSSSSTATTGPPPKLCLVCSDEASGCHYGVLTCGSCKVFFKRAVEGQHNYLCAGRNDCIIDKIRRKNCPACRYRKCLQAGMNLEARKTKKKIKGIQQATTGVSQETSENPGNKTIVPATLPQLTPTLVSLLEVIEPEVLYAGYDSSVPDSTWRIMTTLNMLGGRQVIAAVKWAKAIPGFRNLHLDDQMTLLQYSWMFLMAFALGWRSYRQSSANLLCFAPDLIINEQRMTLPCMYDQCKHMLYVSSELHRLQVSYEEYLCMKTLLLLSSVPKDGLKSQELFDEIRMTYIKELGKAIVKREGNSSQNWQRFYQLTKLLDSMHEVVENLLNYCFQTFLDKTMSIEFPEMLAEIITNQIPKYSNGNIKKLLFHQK
# measurement-protocol: NVS_NR_hGR: NovaScreen (NVS) Nuclear Receptor Binding Assay for human Glucocorticoid Receptor (GR) (AID 2283363)
Results filed as inconclusive are left out. The source made the active and inactive calls. Rule for the calls: active = hit-call score of the fitted dose curve at least 0.9, where 1 is the maximum; inconclusive = response in the unintended direction; inactive = score below 0.9.
Labels: 1.0 = active, 0.0 = inactive

# molecule, qualitative-label
records = [
    ("CNC(=O)ON=C(C)SC", 0.0),
    ("CCC(CC)Nc1c([N+](=O)[O-])cc(C)c(C)c1[N+](=O)[O-]", 0.0),
    ("COP(=O)(NC(C)=O)SC (stereo not given)", 1.0),
    ("CC(C)N(C(=O)SCC(Cl)=C(Cl)Cl)C(C)C", 0.0),
    ("CCCOCC(=Nc1ccc(Cl)cc1C(F)(F)F)n1ccnc1", 1.0),
    ("CCOP(=S)(OCC)Oc1ccc([N+](=O)[O-])cc1", 1.0),
    ("C=C(C)[C@H]1Cc2c(ccc3c2O[C@@H]2COc4cc(OC)c(OC)cc4[C@@H]2C3=O)O1", 1.0),
    ("C#CC(C)(C)NC(=O)c1cc(Cl)cc(Cl)c1", 0.0),
    ("CNc1cnn(-c2cccc(C(F)(F)F)c2)c(=O)c1Cl", 0.0),
    ("CCCCN(CC)c1c([N+](=O)[O-])cc(C(F)(F)F)cc1[N+](=O)[O-]", 0.0),
]

====

# Read-out: CYP2E1 (gene 1571)
# measurement-protocol: LTEA_HepaRG_CYP2E1: Life Technologies and Expression Analysis (LTEA) Assay for CYP2E1 using HepaRG (AID 2283485)
# assay-context: mRNA level, 48 h; actives raise or lower the signal
Active and inactive are the calls of the source. How the source made its calls: active means hit-call score of the fitted dose curve at least 0.9, where 1 is the maximum; inactive means score below 0.9.
In this section, each of the compounds is paired with its reported AC50.
metric-name: AC50

# compound, result
data = [
    ("CCOC(=O)COc1cc(-c2nn(C)c(OC(F)F)c2Cl)c(F)cc1Cl", "16.3 µM (active)"),
    ("CCOP(=O)(SC(C)CC)N1CCSC1=O (stereo unspecified)", "19.1 µM (active)"),
    ("CON=C(C(=O)OC)c1ccccc1CON=C(C)c1cccc(C(F)(F)F)c1", "25.4 µM (active)"),
    ("C=C(C)[C@H]1Cc2c(ccc3c2O[C@@H]2COc4cc(OC)c(OC)cc4[C@@H]2C3=O)O1", "0.591 µM (active)"),
    ("CNc1cnn(-c2cccc(C(F)(F)F)c2)c(=O)c1Cl", "41.1 µM (active)"),
]

====

# measurement-protocol: CCTE_Mundy_HCI_Cortical_Synap_Neur_Matur_NeuriteCount: CCTE's Synaptogenesis and Neurite Maturation Assay in rat cortical cells for Neurite Count, Mundy Lab (AID 2284222)
The source made the active and inactive calls. Rule for the calls: active = hit-call score of the fitted dose curve at least 0.9, where 1 is the maximum; inactive = score below 0.9.
Labels: true (active), false (inactive)

# compound, qualitative-label
data = [
    ("CCOP(=O)(SC(C)CC)N1CCSC1=O (stereo unspecified)", "false"),
    ("CN(C)[C@@H]1C(=O)C(C(N)=O)=C(O)[C@@]2(O)C(=O)C3=C(O)c4c(O)cccc4[C@@](C)(O)[C@H]3[C@H](O)[C@@H]12", "true"),
    ("S=C1NCCN1", "false"),
    ("CCOP(=O)(NC(C)C)Oc1ccc(SC)c(C)c1 (stereo unspecified)", "false"),
    ("COP(=O)(NC(C)=O)SC (stereo unspecified)", "false"),
    ("CCCSP(=O)(OCC)SCCC", "false"),
    ("CN1COCN(Cc2cnc(Cl)s2)C1=N[N+](=O)[O-]", "false"),
    ("O=[N+]([O-])c1cc(C(F)(F)F)c(Cl)c([N+](=O)[O-])c1Nc1ncc(C(F)(F)F)cc1Cl", "true"),
    ("CON=C(C(=O)OC)c1ccccc1CON=C(C)c1cccc(C(F)(F)F)c1", "true"),
    ("COP(=O)(OC)C(O)C(Cl)(Cl)Cl (stereo unspecified)", "false"),
    ("CC1=NNC(=O)N(/N=C/c2cccnc2)C1", "false"),
    ("CCOP(=S)(OCC)Oc1cc(C)nc(C(C)C)n1", "false"),
    ("CCCSP(=O)(OCC)Oc1ccc(Br)cc1Cl (stereo unspecified)", "false"),
    ("CCOP(=S)(OCC)Oc1ccc2c(C)c(Cl)c(=O)oc2c1", "false"),
    ("CCOP(=S)(OCC)SCCSCC", "false"),
    ("CCOP(=O)(OCC)Oc1cc(C)nc(C(C)C)n1", "false"),
]

====

# measurement-protocol: APR_HepG2_MicrotubuleCSK_24hr: Apredica 24-hour HepG2 Assay for Microtubule CSK Stabilty (AID 2282909)
# assay-context: HepG2 microtubule cytoskeleton imaging, actives raise or lower the signal
The source made the active and inactive calls. How the source made its calls: active means hit-call score of the fitted dose curve at least 0.9, where 1 is the maximum; inactive means score below 0.9.
Labels: active, inactive

# compound, qualitative-label
data = [
    ("CCCOc1nn(C(=O)NS(=O)(=O)c2ccccc2C(=O)OC)c(=O)n1C", "inactive"),
    ("N#CSCSC#N", "inactive"),
    ("CCc1cnc(C2=NC(C)(C(C)C)C(=O)N2)c(C(=O)O)c1 (stereo unspecified)", "inactive"),
    ("O=[N+]([O-])c1cc(C(F)(F)F)c(Cl)c([N+](=O)[O-])c1Nc1ncc(C(F)(F)F)cc1Cl", "active"),
    ("CCOP(=S)(Oc1cnc(C(C)(C)C)nc1)OC(C)C (stereo unspecified)", "inactive"),
    ("CCOP(=S)(OCC)Oc1ccc([N+](=O)[O-])cc1", "inactive"),
    ("CON=C(C(=O)OC)c1ccccc1CON=C(C)c1cccc(C(F)(F)F)c1", "inactive"),
    ("CC(=NC#N)N(C)Cc1ccc(Cl)nc1", "inactive"),
    ("S=C1NCCN1", "inactive"),
    ("CNc1cnn(-c2cccc(C(F)(F)F)c2)c(=O)c1Cl", "inactive"),
    ("COc1ccc(C(=CC(=O)N2CCOCC2)c2ccc(Cl)cc2)cc1OC", "inactive"),
    ("CCCCOC(=O)c1ccccc1C(=O)O", "inactive"),
    ("CCOC(=O)COc1cc(-c2nn(C)c(OC(F)F)c2Cl)c(F)cc1Cl", "inactive"),
    ("CN(C)C(=O)Nc1cccc(C(F)(F)F)c1", "inactive"),
    ("COc1cc(OC)nc(Sc2cccc(Cl)c2C(=O)O)n1", "inactive"),
    ("O=c1ccc(=O)[nH][nH]1", "inactive"),
    ("CCOP(=S)(OCC)Oc1ccc2c(C)c(Cl)c(=O)oc2c1", "inactive"),
    ("CCCOCC(=Nc1ccc(Cl)cc1C(F)(F)F)n1ccnc1", "inactive"),
    ("CCCCSP(=O)(SCCCC)SCCCC", "inactive"),
    ("CCC(CC)Nc1c([N+](=O)[O-])cc(C)c(C)c1[N+](=O)[O-]", "inactive"),
    ("CC1=NNC(=O)N(/N=C/c2cccnc2)C1", "inactive"),
    ("COP(=O)(OC)SCn1c(=O)oc2cc(Cl)cnc21", "active"),
    ("CNC(=O)ON=C(C)SC", "inactive"),
    ("Cc1nn(-c2cc(NS(C)(=O)=O)c(Cl)cc2Cl)c(=O)n1C(F)F", "inactive"),
    ("Nc1nc(N)nc(NC2CC2)n1", "inactive"),
    ("CC(COc1ccc(Oc2ccccc2)cc1)Oc1ccccn1 (stereo unspecified)", "inactive"),
]
